experiment: NCI Yeast Anticancer Drug Screen. Data for the mec2-1 strain (AID 157); conditions: S. cerevisiae mec2-1 strain, at 100.0 µM, stronger effect = higher value
The panel holds about 79,000 compounds, 15% with a hit somewhere; the sample as a whole holds those more often.
Observed property: growth inhibition (%)
Answer with a number only, understood to be in %.

| Smiles | Observed property | Display unit | Observed value |
| --- | --- | --- | --- |
| CN=C(N)N/N=C/c1ccc2c(c1)Cc1ccccc1-2 | growth inhibition | % | 60 |

Any idea what growth inhibition was measured for COC(=O)c1ccc(NCC2=CC(=O)C=CC2=O)cc1O ?
89

One more compound: [O-][n+]1c2ccc(O)cc2nc2ccc(Br)cc21
61
